Test system: Jurkat
Assay notes: Antiproliferative activity against human Jurkat T cells after 72 hrs by WST1 based assay
Assay type: functional, cell-based
Property: pIC50; scope: individual molecules
pIC50 here: minus log base 10 of the concentration, concentration in moles per litre.

Use these answered entries as a reference point.
• CC(C)=CCCC(C)(O)[C@H]1CC(=O)C(CO)=C[C@@H]1O (stereo partly drawn) [ANTHEMINONE A] = 5.05
• C=C1C(=O)O[C@@H]2C3O[C@]3(C)CC/C=C(\C)CC[C@@H]12 (stereo partly drawn) = 5.72

Need pIC50, item C=C1C(=O)C[C@@H](C(C)(O)CCC=C(C)C)[C@H](O)[C@H]1O (stereo partly drawn) [ANTHEMINONE C]
5.08
